Values compiled from paper PMC4882280.

CONDITION INFO: female, human, plasma, po, 25 mg, AUC0-∞ (SD), with beta-glucuronidase (total), UGT2B17 *2/*2 (n = 6), single oral 25 mg exemestane
PARAMETER MEASURED: AUC(0-inf) (ng·h/mL)
Write the number in ng·h/mL without appending the unit.

Input line: AUC(0-inf) for C=C1C[C@@H]2[C@H](CC[C@]3(C)C(=O)CC[C@@H]23)[C@@]2(C)C=CC(=O)C=C12 ?
Output line: 19

----------
CONDITION INFO: female, human, plasma, po, 25 mg, Tmax (SD), without beta-glucuronidase (free), UGT2B17 *1/*1 (n = 8), single oral 25 mg exemestane
PARAMETER MEASURED: Tmax (h)
Write the number in h without appending the unit.

Input line: Tmax for C=C1C[C@@H]2[C@H](CC[C@]3(C)C(=O)CC[C@@H]23)[C@@]2(C)C=CC(=O)C=C12 ?
Output line: 3.1

----------
CONDITION INFO: female, human, plasma, po, 25 mg, AUC0-∞ (SD), with beta-glucuronidase (total), UGT2B17 *1/*1 (n = 8), single oral 25 mg exemestane
PARAMETER MEASURED: AUC(0-inf) (ng·h/mL)
Write the number in ng·h/mL without appending the unit.

Input line: AUC(0-inf) for C=C1C[C@@H]2[C@H](CC[C@]3(C)C(=O)CC[C@@H]23)[C@@]2(C)C=CC(=O)C=C12 ?
Output line: 19.8

----------
CONDITION INFO: female, human, plasma, po, 25 mg, AUC0-∞ (SD), without beta-glucuronidase (free), UGT2B17 *2/*2 (n = 6), single oral 25 mg exemestane
PARAMETER MEASURED: AUC(0-inf)
Entry format: amount then unit.

Input line: AUC(0-inf) for C=C1C[C@@H]2[C@H](CC[C@]3(C)C(=O)CC[C@@H]23)[C@@]2(C)C=CC(=O)C=C12 ?
Output line: 0.0197 µg·h/mL

----------
CONDITION INFO: female, human, plasma, po, 25 mg, AUC0-8, plasma, with beta-glucuronidase (+BG), UGT2B17*1/*1 carriers, single oral 25 mg exemestane
PARAMETER MEASURED: AUC(0-t) (ng·h/mL)
Write the number in ng·h/mL without appending the unit.

Input line: AUC(0-t) for C=C1C[C@@H]2[C@H](CC[C@]3(C)C(=O)CC[C@@H]23)[C@@]2(C)C=CC(=O)C=C12 ?
Output line: 16.2

----------
CONDITION INFO: female, human, urine, po, 25 mg, C24 hr (SD), 24-hr urine concentration, with beta-glucuronidase, UGT2B17 *2/*2 (n = 6), single oral 25 mg exemestane
PARAMETER MEASURED: concentration at 24 h
Entry format: amount then unit.

Input line: concentration at 24 h for C=C1C[C@@H]2[C@H](CC[C@]3(C)C(=O)CC[C@@H]23)[C@@]2(C)C=CC(=O)C=C12 ?
Output line: 2.1 ng/mL

----------
CONDITION INFO: female, human, plasma, po, 25 mg, Cmax (SD), with beta-glucuronidase (total), UGT2B17 *1/*1 (n = 8), single oral 25 mg exemestane
PARAMETER MEASURED: Cmax (ng/mL)
Write the number in ng/mL without appending the unit.

Input line: Cmax for C=C1C[C@@H]2[C@H](CC[C@]3(C)C(=O)CC[C@@H]23)[C@@]2(C)C=CC(=O)C=C12 ?
Output line: 4.4

----------
CONDITION INFO: female, human, urine, po, 25 mg, C24 hr (SD), 24-hr urine concentration, without beta-glucuronidase, UGT2B17 *1/*1 (n = 8), single oral 25 mg exemestane
PARAMETER MEASURED: concentration at 24 h (ng/mL)
Write the number in ng/mL without appending the unit.

Input line: concentration at 24 h for C=C1C[C@@H]2[C@H](CC[C@]3(C)C(=O)CC[C@@H]23)[C@@]2(C)C=CC(=O)C=C12 [Exemestane] ?
Output line: 1.9

----------
CONDITION INFO: female, human, urine, po, 25 mg, C24 hr (SD), 24-hr urine concentration, without beta-glucuronidase, UGT2B17 *2/*2 (n = 6), single oral 25 mg exemestane
PARAMETER MEASURED: concentration at 24 h (ng/mL)
Write the number in ng/mL without appending the unit.

Input line: concentration at 24 h for C=C1C[C@@H]2[C@H](CC[C@]3(C)C(=O)CC[C@@H]23)[C@@]2(C)C=CC(=O)C=C12 ?
Output line: 2.5

----------
CONDITION INFO: female, human, urine, po, 25 mg, C24 hr (SD), 24-hr urine concentration, with beta-glucuronidase, UGT2B17 *1/*1 (n = 8), single oral 25 mg exemestane
PARAMETER MEASURED: concentration at 24 h (ng/mL)
Write the number in ng/mL without appending the unit.

Input line: concentration at 24 h for C=C1C[C@@H]2[C@H](CC[C@]3(C)C(=O)CC[C@@H]23)[C@@]2(C)C=CC(=O)C=C12 [Exemestane] ?
Output line: 1.7

----------
CONDITION INFO: female, human, plasma, po, 25 mg, AUC0-8, plasma, with beta-glucuronidase (+BG), UGT2B17*2/*2 carriers, single oral 25 mg exemestane
PARAMETER MEASURED: AUC(0-t) (µg·h/mL)
Write the number in µg·h/mL without appending the unit.

Input line: AUC(0-t) for C=C1C[C@@H]2[C@H](CC[C@]3(C)C(=O)CC[C@@H]23)[C@@]2(C)C=CC(=O)C=C12 [Exemestane] ?
Output line: 0.0155

----------
CONDITION INFO: female, human, plasma, po, 25 mg, Cmax (SD), without beta-glucuronidase (free), UGT2B17 *2/*2 (n = 6), single oral 25 mg exemestane
PARAMETER MEASURED: Cmax (ng/mL)
Write the number in ng/mL without appending the unit.

Input line: Cmax for C=C1C[C@@H]2[C@H](CC[C@]3(C)C(=O)CC[C@@H]23)[C@@]2(C)C=CC(=O)C=C12 ?
Output line: 5.3
